System: P388 leukemia ip, CD2F1 mice, survival T/C
test-protocol: NCI In Vivo Anticancer Drug Screen. Data for tumor model P388 Leukemia (intraperitoneal) in CD2F1 (CDF1) mice
conditions: endpoint: median survival time; dose: 400.0 mg/kg/injection; schedule: Q04DX002 (ip); vehicle: saline with Tween-80; higher = longer survival
Toxic doses and inconclusive results are not listed.
property-label: T/C

# return T/C for each item in the list
1. Cc1ccc(-n2c(O)c(N=Nc3ccc(Br)cc3)c(=O)n(-c3ccc(Br)cc3)c2=S)cc1
2. C/C(=N\Nc1nncn2cccc12)c1ccccc1
3. CSc1nc2c(=S)[nH]cnc2s1
4. N#CC(c1ccccc1)C(c1ccccc1)c1cccc2ccccc12 (configuration not stated)
5. OC1CC2CCCCC2CC1c1ccccc1 (configuration not stated)

94 % of control
124 % of control
92 % of control
107 % of control
116 % of control

Go through the list and state T/C for each entry.
1. CC(Cc1ccccc1)C(=O)Nc1ccccc1 (configuration not stated)
2. O=C1N(c2ccccc2)C(=O)C2(N(c3ccccc3)CCN2c2ccccc2)N1c1ccccc1

91 % of control
88 % of control

###

Tested on: P388 leukemia ip, CD2F1 mice, survival T/C
test-protocol: NCI In Vivo Anticancer Drug Screen. Data for tumor model P388 Leukemia (intraperitoneal) in CD2F1 (CDF1) mice
conditions: endpoint: median survival time; dose: 100.0 mg/kg/injection; schedule: Q01DX005 (ip); vehicle: Klucel (hydroxypropylcellulose) (HPC); higher = longer survival
Inconclusive results and toxic doses are left out. Square brackets hold non-standard residues; d marks the D form. Peptide text beside a SMILES is read from it. * marks the point of attachment. Cbz = O=C(OCc1ccccc1)*; Nva = CCC[CH](N)C(=O)O
property-label: T/C

Solved cases (3 shown):
CCCC(NC(=O)OCc1ccccc1)C(=O)NC(Cc1ccc(O)cc1)C(N)=O (stereo unspecified) (Cbz-[Nva]-Tyr-NH2; configuration not given here): 100 % of control
CO[C@@H]1C2=CC=CC=C[C@H]2n2c(=O)n(-c3ccccc3)c(=O)n21: 103 % of control
CC1(C)CC(NCc2ccccc2)=CC(=S)N1: 103 % of control

For every item below, please supply its T/C.
1. [O-]c1on[n+](-c2ccccc2)c1CN1CCOCC1
2. O=C(NC(Cc1ccc(Br)cc1)C(=O)O)c1ccc(Br)cc1 (stereo unspecified)
3. O=C1CSC(c2ccccn2)N1CCN1C(=O)CSC1c1ccccn1 (stereo unspecified)

["111 % of control", "101 % of control", "96 % of control"]

Consider the following items and state reported T/C for each.
1. O=C1/C(=C/N2CCOCC2)CCc2nc(-c3ccccc3)sc21
2. OCCNC(Cc1ccccc1)c1c(O)ccc2ccccc12 (stereo unspecified)
3. c1ccc2c(c1)[nH]c1c(N3CCOCC3)nnc(N3CCOCC3)c12
4. COc1ccc2c(c1)CCC1C=NOC21 (stereo unspecified)
5. O=C(Nc1ccccc1)P(=S)(c1ccccc1)c1ccccc1

["100 % of control", "94 % of control", "98 % of control", "103 % of control", "104 % of control"]

###

System: P388 leukemia ip, CD2F1 mice, survival T/C
test-protocol: NCI In Vivo Anticancer Drug Screen. Data for tumor model P388 Leukemia (intraperitoneal) in CD2F1 (CDF1) mice
conditions: endpoint: median survival time; dose: 6.25 mg/kg/injection; schedule: Q01DX009 (ip); vehicle: Klucel (hydroxypropylcellulose) (HPC); higher = longer survival
Inconclusive results and toxic doses are left out.
property-label: T/C

Take a look at these entries with their results.
CCOC(=O)Nc1nc2ccc(NC(C)=O)cc2s1: 104 % of control
CCCCCC[C@H]([C@H](C)O)n1cnc2c(N)ncnc21: 98 % of control
CC1CC2OC2/C=C\C=C\C(=O)Cc2c(Cl)c(O)cc(O)c2C(=O)O1 (stereo not given): 107 % of control
O=C(N/N=c1/sc2ccccc2n1Cc1ccccc1)c1ccncc1: 106 % of control

Now look at this one.
// map `Clc1nc(Cl)nc(Nc2ccccc2Cl)n1` to recorded T/C (system: P388 leukemia ip, CD2F1 mice, survival T/C) 96 % of control
